Tested on: DU-145
experiment notes: Cytotoxicity against human DU145 cells after 3 days by SRB assay
Type: functional, cell-based
study conditions: DU-145, 72 h

{"molecule": "CC(C)=CCC1=C2O[C@H](C(C)(C)O)C[C@@]23C[C@H](CC=C(C)C)C(C)(C)[C@@](C(=O)C(C)C)(C1=O)C3=O", "unit of measurement": "µg/mL", "value qualifier": ">", "IC50": 5}
{"molecule": "C=C(C)CCC(C[C@]12C[C@@H]3[C@H](C=C(C)C)[C@](C(=O)c4ccc(O)c(O)c4)(C1=O)C(=O)[C@](CC=C(C)C)(C2=O)C3(C)C)C(=C)C (stereo not given in full)", "unit of measurement": "µg/mL", "value qualifier": "=", "IC50": 4.2}
{"molecule": "C=C(C)CC[C@H](C[C@@H]1C[C@]2(CC=C(C)C)C(=O)[C@@](C(=O)c3ccc(O)c(O)c3)(C(=O)C(CC=C(C)C)=C2O)C1(C)C)C(=C)C", "unit of measurement": "µg/mL", "value qualifier": "=", "IC50": 3.3}
{"molecule": "CC(=O)O[C@H]1C(=O)[C@@]2(C)[C@H]([C@H](OC(=O)c3ccccc3)[C@]3(O)C[C@H](OC(=O)[C@H](O)[C@@H](NC(=O)c4ccccc4)c4ccccc4)C(C)=C1C3(C)C)[C@]1(OC(C)=O)CO[C@@H]1C[C@@H]2O", "unit of measurement": "µg/mL", "value qualifier": "=", "IC50": 0.002}
{"molecule": "C=C(C)CC[C@@H]1C[C@]23C[C@H](CC=C(C)C)C(C)(C)[C@](CC=C(C)C)(C(=O)C(C(=O)c4ccc(O)c(O)c4)=C2OC1(C)C)C3=O", "unit of measurement": "µg/mL", "value qualifier": "=", "IC50": 3.7}

* * *

Tested on: KB
experiment notes: Cytotoxicity against human KB cells after 3 days by SRB assay
Format: functional, cell-based
study conditions: 72 h
Each entry below carries its reported IC50.
reported metric: IC50

{"compound": "CC(=O)O[C@H]1C(=O)[C@@]2(C)[C@H]([C@H](OC(=O)c3ccccc3)[C@]3(O)C[C@H](OC(=O)[C@H](O)[C@@H](NC(=O)c4ccccc4)c4ccccc4)C(C)=C1C3(C)C)[C@]1(OC(C)=O)CO[C@@H]1C[C@@H]2O [PACLITAXEL]", "reported metric": "IC50", "test value": "0.002 µg/mL"}
{"compound": "C=C(C)CC[C@@H]1C[C@]23C[C@H](CC=C(C)C)C(C)(C)[C@](CC=C(C)C)(C(=O)C(C(=O)c4ccc(O)c(O)c4)=C2OC1(C)C)C3=O [CYCLOXANTHOCHYMOL]", "reported metric": "IC50", "test value": "5 µg/mL"}
{"compound": "CC(C)=CC[C@@H]1C[C@]23C[C@H](CC=C(C)C)C(C)(C)[C@](CC=C(C)C)(C(=O)C(C(=O)c4ccc(O)c(O)c4)=C2OC1(C)C)C3=O [ISOXANTHOCHYMOL]", "reported metric": "IC50", "test value": "4.5 µg/mL"}

* * *

Tested on: DU-145
experiment notes: Cytotoxicity against human DU145 cells after 3 days by SRB assay
Assay type: functional, cell-based
study conditions: DU-145, 72 h

{"compound": "CC(C)=CC[C@@H]1C[C@]23C[C@H](CC=C(C)C)C(C)(C)[C@](CC=C(C)C)(C(=O)C(C(=O)c4ccc(O)c(O)c4)=C2OC1(C)C)C3=O", "IC50 (µg/mL)": 4.2}
{"compound": "C=C(C)CC[C@H]1C[C@@]23C[C@@H](CC=C(C)C)C(C)(C)[C@@](CC=C(C)C)(C(=O)C(C(=O)c4ccc(O)c(O)c4)=C2OC1(C)C)C3=O", "IC50 (µg/mL)": 4.7}
{"compound": "C=C(C)CC[C@H](C[C@@H]1C[C@@]2(CC=C(C)C)C(=O)C3=C(O[C@H](C(C)(C)O)C3)[C@](C(=O)c3ccc(O)c(O)c3)(C2=O)C1(C)C)C(=C)C", "IC50 (µg/mL)": 4.3}
{"compound": "C=C(C)CCC(C[C@@]12C[C@H]3[C@@H](C=C(C)C)[C@@](C(=O)c4ccc(O)c(O)c4)(C1=O)C(=O)[C@@](CC=C(C)C)(C2=O)C3(C)C)C(=C)C (stereo not given in full)", "IC50 (µg/mL)": 4.1}
{"compound": "C=C(C)[C@@H]1C[C@]23C[C@H](CC=C(C)C)C(C)(C)[C@](CC=C(C)C)(C(=O)C(C(=O)c4ccc(O)c(O)c4)=C2O[C@H]1C=C(C)C)C3=O", "IC50 (µg/mL)": 7.3}

Values from ChEMBL document CHEMBL1157087
